# TGT: T1, Recombinant cynomolgus TfR1, His6-tagged (a.a. 89-760) (cynomolgus, UniProt H9EXL1 89-760 (rhesus entry))
# T1 construct: range 89-760; same product number named for FP and SPR; also called Cyno TfR1; Acro Biosystems TFR-C524a
# PROTOCOL_TEXT: FP competition table (Table 6)
Starred links: 1 amine or outer side, 2 acyl side, 3 side chain; linkers in the order of their positions; H or OH if unused. Positions of bridges follow the written chain, without caps; N, C: chain ends. Non-standard residues stand in square brackets, D forms with d. No end group written: not given here. Fluorescein = fluorescein label on the C-terminal Lys side chain; TATB = O=C(C[*:1])N1CN(C(=O)C[*:2])CN(C(=O)C[*:3])C1; Sar = CNCC(=O)O
METRIC: Ki (nM)

I. ACSPDAHLGCISACA[Sar][Sar][Sar][Sar][Sar][Sar]K(Fluorescein) (linker 2-10-14 via TATB) [BCY15770]
II. ACSPDAHLGCISYCAXXXXXXK (3 Cys on TATB; [Sar6]; C-terminal Lys carries fluorescein) [BCY15768]
Exercise: Looking at recorded values for Ki, does I or II come in lower? State your choice using its label.
Solution: II

A. ACSPDAALGCISYCA[Sar][Sar][Sar][Sar][Sar][Sar]K(Fluorescein) (linker 2-10-14 via TATB) [BCY15773]
B. ACAPDAHLGCISYCA[Sar][Sar][Sar][Sar][Sar][Sar]K(Fluorescein) (linker 2-10-14 via TATB) [BCY15769]
Exercise: Looking at recorded values for Ki, does A or B come in lower? State your choice using its label.
Solution: B
